TESTED TARGET: Androgen receptor (Homo sapiens)
EXPERIMENT DESCRIPTION: qHTS assay to identify small molecule antagonists of the androgen receptor (AR) signaling pathway using the MDA cell line in the presence of 0.5 nM R1881 (AID 1259243); also: nearly all actives have a fitted effect of over 50% in size
APPLIED CONDITIONS: MDA-kb2 MMTV-luciferase, R1881 0.5 nM, 16 h; series mostly up to 92.4 µM
Records with an inconclusive call do not appear. Activity calls are given as the source filed them. Calls follow the shape of the dose curve; as a rule, active = well fitted inhibition curve with a large enough effect in the repeat runs; inconclusive = weak or mixed curves; inactive = no such curve, though single readings can be large or run the other way.
Just give me one of these, please: active, inactive

Consider the following illustrative entries.
>  <MOLECULE>
COc1cc(C(=O)NC2CCN(C)CC2)ccc1Nc1ncc2c(n1)N(C1CCCC1)CC(F)(F)C(=O)N2C

>  <CLASS>
inactive

$$$$
>  <MOLECULE>
O=C(/C=C/c1ccccc1)OCCc1ccccc1

>  <CLASS>
inactive

$$$$

Would you kindly look at the next entry?
Exercise: Recorded test outcome, item Nc1nc2ccc([N+](=O)[O-])cc2s1
Solution: active

----------
EXPERIMENT DESCRIPTION: A CellTox Green Cytotoxicity Assay to monitor cytotoxicity in HepG2 cells - 24 hour (AID 1224878); also: nearly all actives have a fitted effect of over 45% in size
APPLIED CONDITIONS: CellTox Green fluorescence; series mostly up to 76.8 µM
Records with an inconclusive call do not appear. The source made the active and inactive calls. Calls follow the shape of the dose curve; as a rule, active = well fitted activation curve with a large enough effect in the repeat runs; inconclusive = weak or mixed curves; inactive = flat fitted curve, though single readings scatter.
Lab note: assign the record to one of active, inactive

Study these solved cases before continuing.
>  <COMPOUND>
CC[N+](CC)(CCNC(=O)C(=O)NCC[N+](CC)(CC)Cc1ccccc1Cl)Cc1ccccc1Cl

>  <CLASS>
inactive

$$$$
>  <COMPOUND>
O=[N+]([O-])c1ccc(Nc2ccc(Nc3ccccc3)c(S(=O)(=O)O)c2)c([N+](=O)[O-])c1

>  <CLASS>
inactive

$$$$
>  <COMPOUND>
Nc1nnc(-c2ccc([N+](=O)[O-])o2)o1

>  <CLASS>
inactive

$$$$
>  <COMPOUND>
O=C(O)C[C@H](NC(=O)OCc1ccccc1)C(=O)O

>  <CLASS>
inactive

$$$$

Exercise: Which result was noted for this compound in the test: COC(=O)C1=C(C)NC(C)=C(C(=O)O[C@@H]2CCCN(Cc3ccccc3)C2)[C@@H]1c1cccc([N+](=O)[O-])c1
Solution: inactive

Exercise: Entry Cc1ccccc1S : call = ?
Solution: inactive

Exercise: Hey, what did the test say about Cc1cc(O)c(C)c(C)c1O ?
Solution: inactive

Exercise: Given O=C1c2ccccc2C(=O)C1c1ccc(Br)cc1 , state the outcome it received in this test.
Solution: inactive

Exercise: Name the outcome recorded for CC(=O)c1cc2ccccc2s1 in the assay.
Solution: inactive

Exercise: What did this assay record as the result for C/C=C(/C(=C/C)c1ccc(O)cc1)c1ccc(O)cc1 ?
Solution: active

Exercise: Please indicate how the test categorized CC1(C)O[C@@H]2C[C@H]3[C@@H]4C[C@H](F)C5=CC(=O)C=C[C@]5(C)[C@H]4[C@@H](O)C[C@]3(C)[C@]2(C(=O)CO)O1 .
Solution: inactive

Exercise: For c1ccc2c(c1)CCc1ccccc1N2 , which call appears in the assay record?
Solution: inactive

----------
EXPERIMENT DESCRIPTION: qHTS RealTime-Glo MT Cell Viability Assay in HEK293 cells - 16 hour (AID 1224872); also: nearly all actives have a fitted effect of over 50% in size; also: potency is read from the fitted curve at half-maximal effect
APPLIED CONDITIONS: RealTime-Glo luminescence; series mostly up to 76.8 µM
Results filed as inconclusive are left out. The source made the active and inactive calls. Calls follow the shape of the dose curve; as a rule, active = well fitted cell-killing curve with a large enough effect in the repeat runs; inconclusive = weak or mixed curves, or effect the other way; inactive = flat fitted curve, though single readings scatter.
ASSAY READOUT: Potency

>  <MOLECULE>
COc1ccccc1N1CCN(CCCCNC(=O)c2ccc(-c3ccc(C(C)=O)cc3)cc2)CC1

>  <ASSAY READOUT>
Potency

>  <VAL>
1900 nM (active)

$$$$
>  <MOLECULE>
CC(C)=CCC/C(C)=C/CC/C(C)=C/CCC(=O)OC/C=C(\C)CCC=C(C)C

>  <ASSAY READOUT>
Potency

>  <VAL>
inactive

$$$$
>  <MOLECULE>
C=C(C)[C@@H]1CCC2=CCC[C@@H](C)[C@]2(C)C1

>  <ASSAY READOUT>
Potency

>  <VAL>
inactive

$$$$
>  <MOLECULE>
CO[C@]1(NC(=O)CSC(F)F)C(=O)N2C(C(=O)O)=C(CSc3nnnn3CCO)CO[C@H]21

>  <ASSAY READOUT>
Potency

>  <VAL>
inactive

$$$$
>  <MOLECULE>
CC(=O)c1cc2ccccc2s1

>  <ASSAY READOUT>
Potency

>  <VAL>
inactive

$$$$

Exercise: Param item = CCCCCCCCC(CCCCCC)C(=O)O (stereo not drawn) ; retrieve measured Potency.
Solution: inactive

Exercise: Param item = OC1(c2ccccc2)CCNCC1 ; retrieve measured Potency.
Solution: inactive

Exercise: Entry under review: N#[N+]c1ccc2c(S(=O)(=O)[O-])cccc2c1O . Reported Potency?
Solution: inactive

Exercise: For the molecule O=C(Cn1ccnc1[N+](=O)[O-])NCCO , what Potency is on record?
Solution: inactive

Exercise: # lookup: Potency of CC(=O)Oc1ccc([N+](=O)[O-])cc1CCl
Solution: 6160 nM (active)
